Exercise: for every item that follows, state its recorded percent inhibition of human Factor XI mRNA.
- Test system: human Factor XI mRNA
- method-summary: Dose-dependent inhibition in cyno primary hepatocytes, electroporation (Example 6)
- Format: cell-based, cynomolgus monkey
- study-conditions: 20 nM, approx. 16 h
Numbers only, in %.

- 416826 (antisense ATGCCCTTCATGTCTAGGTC; 5-10-5 gapmer, wing sugar chemistry not given here, further chemistry not given here) [compound 416826]: 67

Quick request: percent inhibition of human Factor XI mRNA for each listed item, please.
1. 416858 (antisense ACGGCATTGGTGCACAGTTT; 5-10-5 gapmer, wing sugar chemistry not given here, further chemistry not given here) [compound 416858]
2. 416838 (antisense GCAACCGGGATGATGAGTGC; 5-10-5 gapmer, wing sugar chemistry not given here, further chemistry not given here) [compound 416838]
3. 416864 (antisense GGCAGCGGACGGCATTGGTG; 5-10-5 gapmer, wing sugar chemistry not given here, further chemistry not given here) [compound 416864]
4. 416892 (antisense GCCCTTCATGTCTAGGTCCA; 3-14-3 chimeric gapmer, wing sugar chemistry not given here, further chemistry not given here) [compound 416892]
5. 416850 (antisense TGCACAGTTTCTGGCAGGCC; 5-10-5 gapmer, wing sugar chemistry not given here, further chemistry not given here) [compound 416850]

1: 44; 2: 34; 3: 23; 4: 62; 5: 65

----------
Exercise: for every item that follows, state its recorded HCT.
- method-summary: Tolerability in CD1 mice: hematology assays (Example 21)
- Assay type: in vivo
- study-conditions: 50 mg/kg s.c. twice per week for 6 weeks
Give bare numbers, in %.

Quick request: HCT for each listed item, please.
1. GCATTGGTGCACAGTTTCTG (antisense; all C 5-methyl, all phosphorothioate, sugars by position not given here; MOE gapmer, 5-10-5) [ISIS 412224, 5-10-5 MOE gapmer]
2. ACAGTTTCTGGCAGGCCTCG (antisense; all C 5-methyl, all phosphorothioate, sugars by position not given here; MOE gapmer, 5-10-5) [ISIS 412223, 5-10-5 MOE gapmer]
3. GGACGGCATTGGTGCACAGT (antisense; all C 5-methyl, all phosphorothioate, sugars by position not given here; MOE gapmer, 5-10-5) [ISIS 413482, 5-10-5 MOE gapmer]
4. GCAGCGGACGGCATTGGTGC (antisense; all C 5-methyl, all phosphorothioate, sugars by position not given here; MOE gapmer, 5-10-5) [ISIS 412225, 5-10-5 MOE gapmer]

1. 50
2. 48
3. 50
4. 50

// Input: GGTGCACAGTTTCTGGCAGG (all C 5-methyl, all phosphorothioate, sugars by position not given here; MOE gapmer) [ISIS 413481, 5-10-5 MOE gapmer] . Output its HCT only. 45

----------
- Tested on: human Factor XI mRNA
- method-summary: Dose-dependent inhibition and IC50 in HepG2 cells, electroporation (Example 15)
- Type: cell-based
- study-conditions: electroporation, 370.37 nM
In the oligonucleotide strings, read from the 5' end, every base follows the letter of its sugar. An asterisk marks phosphorothioate; unmarked linkages are phosphodiester. Other units and linkages are bracketed, terminal groups are in braces. A string of capitals states the bases alone. e = 2'-O-(2-methoxyethyl) (MOE); [5mC] = 5-methylcytosine; d = 2'-deoxy (DNA)
Decide by percent inhibition of Factor XI mRNA: equal to or exceeding 20% means Yes, less means No.

# example entries with known answers
• 445522 (antisense eG*e[5mC]*eA*e[5mC]*eA*dG*dT*dT*dT*d[5mC]*dT*dG*dG*e[5mC]*eA*eG*eG*e[5mC]) [compound 445522] = No
• 445531 (antisense eG*eG*e[5mC]*eA*eT*dT*dG*dG*dT*dG*d[5mC]*dA*d[5mC]*eA*eG*eT*eT*eT) [compound 445531] = No
• 416851 (antisense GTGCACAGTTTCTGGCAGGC; 5-10-5 gapmer, wing sugar chemistry not given here, further chemistry not given here) [compound 416851] = Yes

Could you verify whether the entry 445532 (antisense e[5mC]*eG*eG*e[5mC]*eA*dT*dT*dG*dG*dT*dG*d[5mC]*dA*e[5mC]*eA*eG*eT*eT) [compound 445532] shows percent inhibition of Factor XI mRNA of no less than 20%? No

Could you verify whether the entry 416858 (antisense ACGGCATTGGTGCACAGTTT; 5-10-5 gapmer, wing sugar chemistry not given here, further chemistry not given here) [compound 416858] shows percent inhibition of Factor XI mRNA of no less than 20%? Yes

----------
- Test system: human Factor XI mRNA
- method-summary: Antisense inhibition in HepG2 cells by microwalk gapmers, 75 nM, lipofectin (Example 3)
- Assay type: cell-based
- study-conditions: HepG2 cells, 75 nM, oligonucleotides targeted to nucleobases 1062 to 1091 of SEQ ID NO: 1
In the oligonucleotide strings, read from the 5' end, every base follows the letter of its sugar. An asterisk marks phosphorothioate; unmarked linkages are phosphodiester. Other units and linkages are bracketed, terminal groups are in braces. A string of capitals states the bases alone. e = 2'-O-(2-methoxyethyl) (MOE); [5mC] = 5-methylcytosine; d = 2'-deoxy (DNA)
property-name: % inhibition of human Factor XI mRNA levels
I'd appreciate it if you included the unit after the number.

- 416912 (antisense eG*eA*eG*dA*dT*dT*d[5mC]*dT*dT*dT*dG*dG*dG*d[5mC]*d[5mC]*dA*dT*eT*e[5mC]*e[5mC]) [compound 416912]: 92%

Quick request: % inhibition of human Factor XI mRNA levels for each listed item, please.
1. 416909 (antisense eA*eT*eT*d[5mC]*dT*dT*dT*dG*dG*dG*d[5mC]*d[5mC]*dA*dT*dT*d[5mC]*d[5mC]*eT*eG*eG) [compound 416909]
2. 416843 (antisense eT*eT*eT*eG*eA*dG*dA*dT*dT*d[5mC]*dT*dT*dT*dG*dG*eG*e[5mC]*e[5mC]*eA*eT) [compound 416843]
3. 416917 (antisense eT*e[5mC]*eT*dT*dT*dG*dA*dG*dA*dT*dT*d[5mC]*dT*dT*dT*dG*dG*eG*e[5mC]*e[5mC]) [compound 416917]
4. 416988 (antisense eA*eG*dA*dT*dT*d[5mC]*dT*dT*dT*dG*dG*dG*d[5mC]*d[5mC]*dA*eT*eT*e[5mC]*e[5mC]*eT) [compound 416988]
5. 416986 (antisense eA*eT*dT*d[5mC]*dT*dT*dT*dG*dG*dG*d[5mC]*d[5mC]*dA*dT*dT*e[5mC]*e[5mC]*eT*eG*eG) [compound 416986]

1. 78%
2. 89%
3. 92%
4. 76%
5. 88%

----------
- method-summary: Tolerability in Sprague-Dawley rats: hematology assays (Example 23)
- Type: in vivo
- study-conditions: blood
Exercise: for every item that follows, state its recorded Hemoglobin.
One number for each entry, in g/dL.

As a guide, the following entries are already answered.
- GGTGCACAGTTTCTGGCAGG (all C 5-methyl, all phosphorothioate, sugars by position not given here; MOE gapmer) [ISIS 413481, 5-10-5 MOE gapmer]: 14.2
- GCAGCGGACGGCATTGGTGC (antisense; all C 5-methyl, all phosphorothioate, sugars by position not given here; MOE gapmer, 5-10-5) [ISIS 412225, 5-10-5 MOE gapmer]: 13.4
- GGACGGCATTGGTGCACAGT (antisense; all C 5-methyl, all phosphorothioate, sugars by position not given here; MOE gapmer, 5-10-5) [ISIS 413482, 5-10-5 MOE gapmer]: 13.2

Quick request: Hemoglobin for each listed item, please.
1. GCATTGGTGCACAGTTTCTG (antisense; all C 5-methyl, all phosphorothioate, sugars by position not given here; MOE gapmer, 5-10-5) [ISIS 412224, 5-10-5 MOE gapmer]
2. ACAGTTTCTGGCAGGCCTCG (antisense; all C 5-methyl, all phosphorothioate, sugars by position not given here; MOE gapmer, 5-10-5) [ISIS 412223, 5-10-5 MOE gapmer]

1: 13.4; 2: 13.1

----------
- Test system: human Factor XI mRNA
- method-summary: Dose-dependent inhibition in HepB3 cells, electroporation (Example 7)
- Type: cell-based
- study-conditions: 370.37 nM, approx. 16 h
property-name: percent inhibition of human Factor XI mRNA (%)
Give bare numbers, in %.

As a guide, the following entries are already answered.
- 417002 (antisense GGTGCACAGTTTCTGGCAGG; 2-13-5 gapmer, wing sugar chemistry not given here, further chemistry not given here) [compound 417002]: 31
- 416925 (antisense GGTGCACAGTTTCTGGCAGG; 3-14-3 chimeric gapmer, wing sugar chemistry not given here, further chemistry not given here) [compound 416925]: 50
- 417003 (antisense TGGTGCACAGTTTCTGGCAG; 2-13-5 gapmer, wing sugar chemistry not given here, further chemistry not given here) [compound 417003]: 15
- 416892 (antisense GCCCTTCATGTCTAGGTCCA; 3-14-3 chimeric gapmer, wing sugar chemistry not given here, further chemistry not given here) [compound 416892]: 28

Now consider the entry below.
// Input: 416826 (antisense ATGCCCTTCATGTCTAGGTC; 5-10-5 gapmer, wing sugar chemistry not given here, further chemistry not given here) [compound 416826] . Output its percent inhibition of human Factor XI mRNA only. 34

Source listed as patent US20120083522A1.
